Provide the reported GI50 of each item.
Test system: MDA-MB-231 cells
experiment: Inhibition of proliferation of triple-negative breast cancer cells, CellTiter-Glo
Type: cell-based
condition-info: Homo sapiens, 120 h; MDA-MB-231, cultured for 5 days

compound: COc1cc(-c2ccnn2C)ccc1Nc1nc(NC2CCCCC2)c2c(C(F)(F)F)c[nH]c2n1
tgt: MDA-MB-231 cells
GI50: > 1000 nM

I'm hoping you can list GI50 for every compound here, please.
1. COc1cc(-c2ccnn2C)c(F)cc1Nc1nc(NC2CCCCC2)c2c(C#N)c[nH]c2n1
2. COc1cc(-c2c(C)noc2C)ccc1Nc1nc(NC2CCCCC2)c2c(C#N)c[nH]c2n1

1: 100 to 1000 nM; 2: < 100 nM

Need GI50 for each of these compounds.
1. COc1cc(Nc2nc(NC3CCCCC3)c3c(C#N)c[nH]c3n2)ccc1-c1ccnn1C
2. COc1cc(-c2c(C)noc2C)ccc1Nc1nc(NC2CCCC2)c2c(C#N)c[nH]c2n1
3. N#Cc1c[nH]c2nc(Nc3ccc(N4CCCC4=O)c4c3OCCO4)nc(NC3CCCCC3)c12
4. COc1cc(-c2ccc(F)nc2)ccc1Nc1nc(NC2CCCC2)c2c(C#N)c[nH]c2n1

1. < 100 nM
2. < 100 nM
3. < 100 nM
4. < 100 nM

# batch size: 4; output GI50 per entry
1. Cn1nccc1-c1ccc(Nc2nc(NCCS(C)(=O)=O)c3c(C#N)c[nH]c3n2)c2c1OCCO2
2. COc1cc(-c2nnc3n2CCC3)ccc1Nc1nc(NC2CCCCC2)c2c(C#N)c[nH]c2n1
3. Cn1nccc1-c1ccc(Nc2nc(NC3CCC3)c3c(C#N)c[nH]c3n2)c2c1OCCO2
4. COc1cc(N2CCCC2=O)ccc1Nc1nc(NC(C)C)c2c(C#N)c[nH]c2n1

> 1000 nM
< 100 nM
< 100 nM
< 100 nM

* * *

Would you mind telling me the reported GI50 of each entry?
Test system: SHP-77
experiment: Inhibition of proliferation of small cell lung cancer cells, CellTiter-Glo
Assay type: cell-based
condition-info: Homo sapiens, SHP77, 120 h; SHP-77, cultured for 5 days
Procedure: Specifically, the following test was performed to evaluate the inhibitory activity of the compound according to the present invention against the cell proliferation in the SCLC cells. To check an inhibitory ability of cell growth in one SCLC cell line, a test was performed as follows. […] Then, a degree of luminescence (fluorescence) was measured. […]

Worked examples, 3 molecules total:
molecule: COc1cc(N2CCCS2(=O)=O)ccc1Nc1nc(NC2CCCC2)c2c(C(F)(F)F)c[nH]c2n1
tgt: SHP-77
GI50: 100 to 1000 nM

molecule: COc1cc(N2CCCS2(=O)=O)ccc1Nc1nc(NC2CCOCC2)c2c(C(F)(F)F)c[nH]c2n1
tgt: SHP-77
GI50: < 100 nM

molecule: COc1cc(-c2ccnn2C)c(F)cc1Nc1nc(NC2CCCC2)c2c(C#N)c[nH]c2n1
tgt: SHP-77
GI50: 100 to 1000 nM

Dear colleague, could you send me GI50 for each of the items below? Thanks.
1. Cn1cc(-c2ccc(Nc3nc(NC4CCOCC4)c4c(C#N)c[nH]c4n3)c3c2OCCO3)cn1
2. N#Cc1c[nH]c2nc(Nc3ccc(N4CCCC4=O)c4c3OCCO4)nc(NC3C[C@H]4CC[C@@H]3C4)c12 (stereo partly shown)
3. COc1cc(-c2cnn(C)c2)ccc1Nc1nc(NC2CCOCC2)c2c(C(F)(F)F)c[nH]c2n1
4. COc1cc(-c2ccccc2)ccc1Nc1nc(NC2CCOCC2)c2c(C#N)c[nH]c2n1
5. COc1cc(-c2ccnn2C)ccc1Nc1nc(NC2CCCC2)c2c(C#N)c[nH]c2n1

< 100 nM
< 100 nM
< 100 nM
< 100 nM
< 100 nM

* * *

Tested on: SHP-77
experiment: Inhibition of proliferation of small cell lung cancer cells, CellTiter-Glo
Assay type: cell-based
condition-info: Homo sapiens, SHP77, 120 h; SHP-77, cultured for 5 days
Would you kindly list GI50 for each of these compounds?

List the reported GI50 of each compound below.
1. COc1cc(-c2cnn(C)c2)c(F)cc1Nc1nc(NC2CCCCC2)c2c(C#N)c[nH]c2n1
2. COc1cc(-c2ccnn2C)ccc1Nc1nc(NC2CCCC2)c2c(C(F)(F)F)c[nH]c2n1
3. N#Cc1c[nH]c2nc(Nc3ccc(N4CCCS4(=O)=O)c(F)c3)nc(NC3CCCC3)c12
4. Cn1nccc1-c1ccc(Nc2nc(NC3CCCC3)c3c(C#N)c[nH]c3n2)c2c1OCCO2
5. COc1cc(-c2nncn2C)ccc1Nc1nc(NC2CCOC(C)(C)C2)c2c(C#N)c[nH]c2n1 (centres unmarked)
6. COc1cc(Nc2nc(NC3CCCC3)c3c(C#N)c[nH]c3n2)ccc1-c1ccnn1C
7. COc1cc(-c2nncn2C)ccc1Nc1nc(NC2CCCC(F)(F)C2)c2c(C#N)c[nH]c2n1 (centres unmarked)
8. N#Cc1c[nH]c2nc(Nc3ccc(N4CCCS4(=O)=O)cc3)nc(NC3CCCC3)c12

> 1000 nM
100 to 1000 nM
< 100 nM
< 100 nM
< 100 nM
100 to 1000 nM
< 100 nM
< 100 nM

* * *

Test system: BxPC3
experiment: Cell proliferation inhibition, carcinomas other than TNBC
Assay type: cell-based
condition-info: Homo sapiens, BXPC-3
Description: To check an ability to inhibit the growth of (MDA-MB-231) cells in two triple-negative breast cancer cell lines, a test was performed, as follows. […] Then, a degree of luminescence (fluorescence) was measured. A degree of inhibition of the cell growth according to the treatment concentration of each of the compounds was calculated based on the fluorescence of the solvent control cells which were not treated with the compound. […]
assay-endpoint: GI50

substance-smiles: COc1cc(N2CCCC2=O)ccc1Nc1nc(NC2CCCCC2)c2c(C#N)c[nH]c2n1
reported-result: < 100 nM
//
substance-smiles: COc1cc(N2CCCC2=O)ccc1Nc1nc(NC2CCCCC2)c2c(C(F)(F)F)c[nH]c2n1
reported-result: 100 to 1000 nM
//
substance-smiles: COc1cc(N2CCCC2=O)ccc1Nc1nc(NC2CCCC2)c2c(C#N)c[nH]c2n1
reported-result: < 100 nM

Provide GI50 values for the following items, in order.
1. COc1cc(N2CCCC2=O)ccc1Nc1cc(NC2CCCC2)c2c(C#N)c[nH]c2n1
2. COc1cc(N2CCCC2=O)ccc1Nc1cc(NC2CCCCC2)c2c(C#N)c[nH]c2n1
3. COc1cc(N2CCCC2=O)ccc1Nc1cc(NC2CCCCC2)c2c(C(F)(F)F)c[nH]c2n1
4. COc1cc(N2CCCC2=O)ccc1Nc1nc(NC2CCCC2)c2cc[nH]c2n1
5. CNc1nc(Nc2ccc(N3CCCC3=O)cc2OC)nc2[nH]cc(C#N)c12
6. COc1cc(N2CCCC2=O)ccc1Nc1nc(NC2CCCC2)c2c(C(F)(F)F)c[nH]c2n1

< 100 nM
< 100 nM
100 to 1000 nM
< 100 nM
100 to 1000 nM
100 to 1000 nM

* * *

Tested on: SHP-77
experiment: Inhibition of proliferation of small cell lung cancer cells, CellTiter-Glo
Assay type: cell-based
condition-info: Homo sapiens, SHP77, 120 h; SHP-77, cultured for 5 days
assay-endpoint: GI50

For each of the compounds below, note its GI50.
1. Cn1nccc1-c1ccc(Nc2nc(NC3CCCC3)c3c(C(F)(F)F)c[nH]c3n2)c2c1OCCO2
2. COc1cc(-c2nncn2C)ccc1Nc1nc(NC2CCOCC2)c2c(C#N)c[nH]c2n1
3. Cn1nccc1-c1ccc(Nc2nc(NCC3CCC3)c3c(C#N)c[nH]c3n2)c2c1OCCO2
4. Cn1cc(-c2ccc(Nc3nc(NC4C[C@H]5CC[C@@H]4C5)c4c(C#N)c[nH]c4n3)c3c2OCCO3)cn1 (stereo partly shown)
5. Cn1nccc1-c1ccc(Nc2nc(NC3CCCC3)c3c(Cl)c[nH]c3n2)c2c1OCCO2

1: 100 to 1000 nM; 2: < 100 nM; 3: < 100 nM; 4: < 100 nM; 5: < 100 nM

Quick batch: GI50 for everything below.
1. COc1cc(Nc2nc(NC3CCOC(C)(C)C3)c3c(C#N)c[nH]c3n2)ccc1-c1ccnn1C (stereo not shown)
2. COc1cc(N2CCCS2(=O)=O)ccc1Nc1nc(NC2CCOCC2)c2c(C#N)c[nH]c2n1
3. Cn1nccc1-c1ccc(Nc2nc(NC3C[C@H]4CC[C@@H]3C4)c3c(C#N)c[nH]c3n2)c2c1OCCO2 (stereo partly shown)
4. COc1cc(N2CCCCS2(=O)=O)ccc1Nc1nc(NC2CCCC2)c2c(C#N)c[nH]c2n1
5. COc1cc(-c2c(C)noc2C)c(F)cc1Nc1nc(NC2CCCCC2)c2c(C#N)c[nH]c2n1
6. COc1cc(-c2ccnn2C)ccc1Nc1nc(NC2CCOC(C)(C)C2)c2c(C#N)c[nH]c2n1 (stereo not shown)
7. COc1cc(Nc2nc(NC3CCCC3)c3c(C#N)c[nH]c3n2)ccc1-c1c(C)noc1C
8. COc1cc(-c2ccnn2C)ccc1Nc1nc(NC2CCCC2)c2cc[nH]c2n1

1: < 100 nM; 2: < 100 nM; 3: < 100 nM; 4: < 100 nM; 5: 100 to 1000 nM; 6: < 100 nM; 7: < 100 nM; 8: 100 to 1000 nM

Batch lookup, GI50 per entry.
1. COc1cc(-c2c(C)noc2C)ccc1Nc1nc(NC2C[C@H]3CC[C@@H]2C3)c2c(C#N)c[nH]c2n1 (stereo partly shown)
2. N#Cc1c[nH]c2nc(Nc3ccc(N4CCCCS4(=O)=O)c(F)c3)nc(NC3CCCC3)c12

1. < 100 nM
2. < 100 nM
